- Test system: HUVEC/MSC spheroids viability
- Protocol Description: Human HUVEC/MSC cell line growth inhibition [KRAS2];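 also: percent of DMSO vehicle control luminescence so 100% = untreated viability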
- Settings: second compound 0.1 µM; first compound 0.00949 µM; stronger effect = lower value
Property: viability, T/C (%)
Numbers only, in %.

Worked cases, viability, T/C given:
>  <Compound>
CC(=O)Nc1cccc(-n2c(=O)n(C3CC3)c(=O)c3c(Nc4ccc(I)cc4F)n(C)c(=O)c(C)c32)c1 + C=CC(=O)N1CCN(c2nc(=O)n(-c3c(C)ccnc3C(C)C)c3nc(-c4c(O)cccc4F)c(F)cc23)C(C)C1

>  <Reading Unit>
%

>  <viability, T/C>
88.3

$$$$
>  <Compound>
CC1COCCN1c1cc(-c2ccnn2C)c2ccnc(-c3ccn[nH]3)c2n1 (configuration not stated) + CNCc1ccccc1-c1csc(C(C)Nc2nc(C)nc3cc(OC)c(OC)cc23)c1

>  <Reading Unit>
%

>  <viability, T/C>
88.4

$$$$

# batch size: 5; output viability, T/C per entry
1. CC1COCCN1c1cc(-c2ccnn2C)c2ccnc(-c3ccn[nH]3)c2n1 (configuration not stated) + C=CC(=O)N1CCN(c2nc(=O)n(-c3c(C)ccnc3C(C)C)c3nc(-c4c(O)cccc4F)c(F)cc23)C(C)C1
2. CC(=O)OC12COC1CC(O)C1(C)C(=O)C(O)C3=C(C)C(OC(=O)C(O)C(NC(=O)OC(C)(C)C)c4ccccc4)CC(O)(C(OC(=O)c4ccccc4)C21)C3(C)C (configuration not stated) + CNCc1ccccc1-c1csc(C(C)Nc2nc(C)nc3cc(OC)c(OC)cc23)c1
3. CC(=O)OC12COC1CC(O)C1(C)C(=O)C(O)C3=C(C)C(OC(=O)C(O)C(NC(=O)OC(C)(C)C)c4ccccc4)CC(O)(C(OC(=O)c4ccccc4)C21)C3(C)C (configuration not stated) + C=CC(=O)N1CCN(c2nc(=O)n(-c3c(C)ccnc3C(C)C)c3nc(-c4c(O)cccc4F)c(F)cc23)C(C)C1
4. CC(=O)Nc1cccc(-n2c(=O)n(C3CC3)c(=O)c3c(Nc4ccc(I)cc4F)n(C)c(=O)c(C)c32)c1 + CC1OCC2(CCN(c3cnc(Sc4ccnc(N)c4Cl)c(N)n3)CC2)C1N
5. CC1COCCN1c1cc(-c2ccnn2C)c2ccnc(-c3ccn[nH]3)c2n1 (configuration not stated) + COc1cc2nc(C)nc(NC(C)c3cc(N)cc(C(F)(F)F)c3)c2cc1OC1CCOC1

## Result
[113, 44.2, 65.5, 77.5, 83.2]
